These data points were gathered from patent US4481218A.

Assay Procedure: in vivo
Parameters: species or system white mice
Assay Conditions: mouse, ip
Parameter: NOAEL

What value of NOAEL has been recorded for this entry: "C[N+](C)(C)NCCC(=O)[O-]"
≥ 10000 mg/kg
